experiment: PAMPA-GIT; details: PAMPA-GIT, fraction absorption classification

{"columns": ["structure", "classification"],
 "data": [
  ["O=C(O)Cc1ccccc1Nc1c(Cl)cccc1Cl", "high (High, 70–100% Fa)"],
  ["O=c1ccc2ccccc2o1", "high (High, 70–100% Fa)"]
]}

====

Recorded measurements of experimental fraction absorption, one per entry
assay: PAMPA-GIT; conditions: PAMPA-GIT
measureName: experimental fraction absorption (%)

{"columns": ["molecule", "measureName", "measValue"],
 "data": [
  ["CCn1cc(C(=O)O)c(=O)c2cc(F)c(N3CCNCC3)cc21", "experimental fraction absorption", 51.39],
  ["C[C@]12CCC(=O)C=C1CC[C@@H]1[C@@H]2[C@@H](O)C[C@@]2(C)[C@H]1CC[C@]2(O)C(=O)CO [hydrocortisone]", "experimental fraction absorption", 100.00],
  ["CNC(=C[N+](=O)[O-])NCCSCc1ccc(CN(C)C)o1", "experimental fraction absorption", 49.75],
  ["O=C(O)Cc1ccccc1Nc1c(Cl)cccc1Cl", "experimental fraction absorption", 100.00],
  ["O=c1ccc2ccccc2o1", "experimental fraction absorption", 100.00]
]}

All values here come from paper PMC9631887.
